Data origin: patent US7803930B2

System: human apolipoprotein B mRNA
Experiment: Inhibition of human apolipoprotein B mRNA levels in HepG2 cells, quantitative real-time PCR
Type: cell-based
Test conditions: HepG2 cells treated with 150 nM of compound; averages from two experiments; quantitative real-time PCR
In the oligonucleotide strings, read from the 5' end, every base follows the letter of its sugar. An asterisk marks phosphorothioate; unmarked linkages are phosphodiester. Other units and linkages are bracketed, terminal groups are in braces. A string of capitals states the bases alone. e = 2'-O-(2-methoxyethyl) (MOE); [5mC] = 5-methylcytosine; d = 2'-deoxy (DNA)
Observed property: % INHIB (inhibition of human apolipoprotein B mRNA levels) (%)
Report as a plain number; the unit % is understood.

The recorded % INHIB (inhibition of human apolipoprotein B mRNA levels) with human apolipoprotein B mRNA for 271022 (antisense eG*eA*eT*eA*eG*dA*dA*dT*dA*dT*dT*dG*d[5mC]*dT*d[5mC]*eT*eG*e[5mC]*eA*eA) [compound 271022] was 100

Summary: 281625 (antisense eA*eG*eG*eT*eT*dA*d[5mC]*d[5mC]*dA*dG*d[5mC]*d[5mC]*dA*d[5mC]*dA*eT*eG*e[5mC]*eA*eG) [compound 281625] , human apolipoprotein B mRNA, % INHIB (inhibition of human apolipoprotein B mRNA levels) = 94

Hey, human apolipoprotein B mRNA data for 271025 (eT*e[5mC]*e[5mC]*eA*eT*dT*d[5mC]*d[5mC]*d[5mC]*dT*dA*dT*dG*dT*d[5mC]*eA*eG*e[5mC]*eA*eT; antisense) [compound 271025] : % INHIB (inhibition of human apolipoprotein B mRNA levels) came out at 16

Bench note, human apolipoprotein B mRNA: 281590 (e[5mC]*eT*eG*e[5mC]*eT*dT*d[5mC]*d[5mC]*d[5mC]*dT*dT*d[5mC]*dT*dG*dG*eA*eA*eT*eG*eG; antisense) [compound 281590] , % INHIB (inhibition of human apolipoprotein B mRNA levels) reads 84

For the substance 301036 (eT*eT*eT*eG*eG*dT*dG*d[5mC]*dA*dG*dG*dT*d[5mC]*d[5mC]*dA*eG*eT*eT*e[5mC]*eA; antisense) [compound 301036] , the measured % INHIB (inhibition of human apolipoprotein B mRNA levels) on human apolipoprotein B mRNA was 88

human apolipoprotein B mRNA assay, substance 281586 (eT*eG*eG*eA*e[5mC]*dA*dG*dA*d[5mC]*d[5mC]*dA*dG*dG*d[5mC]*dT*eG*eA*e[5mC]*eA*eT; antisense) [compound 281586] , recorded % INHIB (inhibition of human apolipoprotein B mRNA levels) = 80

Per the reported human apolipoprotein B mRNA data, 301015 (e[5mC]*eA*eA*e[5mC]*e[5mC]*dG*dA*dG*dA*dA*dG*dG*dG*d[5mC]*dA*e[5mC]*eT*e[5mC]*eA*eG; antisense) [compound 301015] has % INHIB (inhibition of human apolipoprotein B mRNA levels) of 53

GET /values?item= 271011 (antisense eG*eT*e[5mC]*eT*eG*dG*d[5mC]*dA*dA*dT*d[5mC]*d[5mC]*d[5mC]*dA*dT*eG*eT*eT*e[5mC]*eT) [compound 271011] &system= human apolipoprotein B mRNA returns % INHIB (inhibition of human apolipoprotein B mRNA levels): 51

# % INHIB (inhibition of human apolipoprotein B mRNA levels) measured on human apolipoprotein B mRNA for item 301043 (eA*eA*eA*eA*eA*dT*dG*d[5mC]*d[5mC]*dA*dT*d[5mC]*d[5mC]*dT*dT*e[5mC]*eT*eG*eA*eG; antisense) [compound 301043] = 81

Noted % INHIB (inhibition of human apolipoprotein B mRNA levels) for 281600 (antisense eG*eA*eT*e[5mC]*eA*dT*d[5mC]*dA*dG*dT*dG*dA*dT*dG*dG*e[5mC]*eT*eT*eT*eG) [compound 281600] , tested on human apolipoprotein B mRNA: 52

Note to self: % INHIB (inhibition of human apolipoprotein B mRNA levels) of 281599 (eT*eT*e[5mC]*e[5mC]*eA*dA*dT*dG*dA*d[5mC]*d[5mC]*d[5mC]*dG*d[5mC]*dA*eG*eA*eA*eT*e[5mC]; antisense) [compound 281599] with human apolipoprotein B mRNA was 74
